FYI, the data here is from the supplement of paper PMC10065799.

Tested on: AncSZ
assayMethodText: phosphorylation enrichment, bacterial display (enrichment ratio); higher = better substrate or ligand; peptides without Tyr show the background;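 note: 11-residue human phosphosite peptides and single-mutation variants displayed on the E. coli surface, counted by deep sequencing, each peptide's frequency after selection divided by its frequency in the unselected input library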;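 note: frequency after pTyr selection over input frequency; kinase dosed for 20-30% of maximal phosphorylation in three min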
observedProperty: phosphorylation enrichment

> print(dat)
                 sequencerecord  quantitativereadout
1                   LTDLRYKVSGP                0.644
2                   VCDALYPPGPP                0.779
3  HRERPYGGGGG [FUS_Y526_R521H]                0.487

###

Test system: c-Src
assayMethodText: phosphorylation enrichment, bacterial display (enrichment ratio); higher = better substrate or ligand; peptides without Tyr show the background
Below, each of the sequences is paired with its reported phosphorylation enrichment value.
observedProperty: phosphorylation enrichment

> print(dat)
                         sequencerecord            observedproperty  quantitativereadout
1  AAVDTVCRHNF [HLA-DRB1_Y107_Y107V_YF]  phosphorylation enrichment                0.491
2       FKGKNYKPLDL [RPL35_Y78_K77N_YF]  phosphorylation enrichment                0.487
3             RRGTGYTLSLP [MAGEC3_Y152]  phosphorylation enrichment                0.497
